Measurement protocol: Human Microsome Stability Assay
Format: in vitro ADME
Run conditions: human, liver microsomes; 1 μM compound, 0.5 mg/mL liver microsomal protein, 1 mM NADPH, pH 7.4, 37° C., 0-30 minutes; read-out: Clearance of Human microsome
Measurement name: CLint scaled at 1 µM (mL/min/kg)
Give the value, in units of mL/min/kg, as a plain number.

NCC(=O)NCC(=O)N1CCC(C(F)(F)c2cc(Cl)nc(N3CCN(S(=O)(=O)c4ccc5c(c4)OC[C@@H]4[C@H](CO)OC(=O)N54)CC3)c2)CC1 [Example 057] has a reported CLint scaled at 1 µM of 11.3

The reported CLint scaled at 1 µM of the compound NCCC(=O)N1CCC(C(F)(F)c2cc(Cl)nc(N3CCN(S(=O)(=O)c4ccc5c(c4)OC[C@@H]4[C@H](CO)OC(=O)N54)CC3)c2)CC1 [Example 054] was 6.4

Reported CLint scaled at 1 µM ( NCCCNC(=O)/C=C/C(F)(F)c1cc(Cl)nc(N2CCN(S(=O)(=O)c3ccc4c(c3)OC[C@@H]3[C@H](CO)OC(=O)N43)CC2)c1 [Example 044] ) = 7

----------
Measurement protocol: Human Microsome Stability Assay
Type: in vitro ADME
Run conditions: human, liver microsomes; 1 μM compound, 0.5 mg/mL liver microsomal protein, 1 mM NADPH, pH 7.4, 37° C., 0-30 minutes; read-out: Clearance of Human microsome
Hi there, I'd appreciate the recorded CLint scaled at 1 µM for every entry that follows.
Number only, in mL/min/kg; omit the unit.

Item: O=C1O[C@H](CO)[C@@H]2COc3cc(S(=O)(=O)N4CCN(c5cc(C(F)(F)C6CCNCC6)cc(Cl)n5)CC4)ccc3N12 [Example 029] | CLint scaled at 1 µM: 11.6

Short answer for O=C1O[C@@H](CO)[C@H]2COc3cc(S(=O)(=O)N4CCN(c5cc(C(F)(F)C6C7CNCC76)cc(Cl)n5)CC4)ccc3N12 (stereo partly drawn) [Example 034] : CLint scaled at 1 µM was 12.7

Reported CLint scaled at 1 µM ( NCCCNC(=O)[C@H]1CC[C@H](C(F)(F)c2cc(Cl)nc(N3CCN(S(=O)(=O)c4ccc5c(c4)OC[C@@H]4[C@H](CN)OC(=O)N54)CC3)c2)CC1 (stereo in doubt) [Example 047] ) = 7

// CLint scaled at 1 µM value for Cc1cc(C(F)(F)F)nc(N2CCN(S(=O)(=O)c3ccc4c(c3)OC[C@H]3[C@@H](CN5CC(CN)C5)OC(=O)N43)CC2)n1 [Example 026] : 10.8

Value of measured CLint scaled at 1 µM for the entry O=C1O[C@@H](CO)[C@@H]2COc3cc(S(=O)(=O)N4CCN(c5cc(C(F)(F)C6CCNCC6)cc(Cl)n5)CC4)ccc3N12 [Example 038] : 11.1

Value of measured CLint scaled at 1 µM for the entry NC[C@H]1OC(=O)N2c3ccc(S(=O)(=O)N4CCN(c5cc(C(F)(F)F)cc(Cl)n5)CC4)cc3OC[C@@H]12 (relative stereo) [Example 007] : 9.6

Per the record, NC1CCC(Oc2cc(Cl)nc(N3CCN(S(=O)(=O)c4ccc5c(c4)OC[C@@H]4[C@H](CO)OC(=O)N54)CC3)c2)CC1 (stereo partly drawn) [Example 042] has CLint scaled at 1 µM of 6.7

Kindly note the recorded CLint scaled at 1 µM for NCCN1CCC(C(F)(F)c2cc(Cl)nc(N3CCN(S(=O)(=O)c4ccc5c(c4)OC[C@@H]4[C@H](CO)OC(=O)N54)CC3)c2)CC1 [Example 055] , which is 7.8

CLint scaled at 1 µM for NCCC(=O)NC1CCC(Oc2cc(Cl)nc(N3CCN(S(=O)(=O)c4ccc5c(c4)OC[C@H]4[C@H](CO)OC(=O)N54)CC3)c2)CC1 (stereo partly drawn) [Example 051] is 13.1

Form field CLint scaled at 1 µM, entry O=C1O[C@H](CO)[C@H]2COc3cc(S(=O)(=O)N4CCN(c5cc(C(F)(F)C6CCNCC6)cc(Cl)n5)CC4)ccc3N12 [Example 037] : 10.9

Please fill in: CLint scaled at 1 µM reported for O=C1O[C@@H](CO)[C@H]2COc3cc(S(=O)(=O)N4CCN(c5cc(C(F)(F)C6CCNCC6)cc(Cl)n5)CC4)ccc3N12 [Example 028] = 10.5

CLint scaled at 1 µM for NCC(=O)N1CCC(C(F)(F)c2cc(Cl)nc(N3CCN(S(=O)(=O)c4ccc5c(c4)OC[C@@H]4[C@H](CO)OC(=O)N54)CC3)c2)CC1 [Example 053] is 12.2

Hello, the source for this data is patent US20260308172A1, in case you need it.
